The reported numbers originate from patent US9062051B2.

Hi there, I'd appreciate the recorded pIC50 for every entry that follows.
testTarget: EphA2 (UniProt Ref: P29317) (Homo sapiens, UniProt P29317)
Sequence (P29317 24-976): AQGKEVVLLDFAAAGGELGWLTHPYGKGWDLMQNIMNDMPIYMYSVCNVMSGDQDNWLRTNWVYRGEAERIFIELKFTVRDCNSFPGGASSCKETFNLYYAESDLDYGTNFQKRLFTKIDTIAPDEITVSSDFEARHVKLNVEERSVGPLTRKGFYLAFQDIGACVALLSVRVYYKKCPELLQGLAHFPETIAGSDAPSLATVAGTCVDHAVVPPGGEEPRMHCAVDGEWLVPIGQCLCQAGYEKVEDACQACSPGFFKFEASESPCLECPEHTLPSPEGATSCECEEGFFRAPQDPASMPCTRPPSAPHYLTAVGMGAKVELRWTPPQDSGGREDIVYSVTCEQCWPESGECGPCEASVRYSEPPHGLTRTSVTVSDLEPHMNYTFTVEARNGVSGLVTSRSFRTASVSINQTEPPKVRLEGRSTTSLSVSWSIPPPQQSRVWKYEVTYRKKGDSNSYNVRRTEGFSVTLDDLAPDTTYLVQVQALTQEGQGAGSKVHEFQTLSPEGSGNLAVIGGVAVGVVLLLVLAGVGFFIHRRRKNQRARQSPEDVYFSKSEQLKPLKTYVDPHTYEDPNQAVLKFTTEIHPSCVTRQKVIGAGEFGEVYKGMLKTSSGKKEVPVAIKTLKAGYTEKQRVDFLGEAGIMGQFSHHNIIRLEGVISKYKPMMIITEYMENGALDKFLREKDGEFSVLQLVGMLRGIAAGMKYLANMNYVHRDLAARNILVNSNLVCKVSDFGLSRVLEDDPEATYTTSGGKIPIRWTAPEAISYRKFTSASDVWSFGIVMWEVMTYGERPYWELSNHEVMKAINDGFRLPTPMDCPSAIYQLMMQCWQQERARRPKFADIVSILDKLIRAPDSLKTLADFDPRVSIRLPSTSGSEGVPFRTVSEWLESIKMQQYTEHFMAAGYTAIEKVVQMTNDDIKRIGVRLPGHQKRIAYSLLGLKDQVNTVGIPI
protocolSummary: EphA2 assay (Reaction Biology HotSpot radioactive kinase assay)
conditionParameters: ATP 10 μM; read-out: EphA2 potency IC50
pIC50: −log10 of the molar value.

Query string: Record request: pIC50 value, item `CCc1n[nH]c2nc(-c3cc(NC(=O)c4cccc(C(F)(F)F)c4)cnc3C)ccc12`
Result string: 7.00 to 7.30

Query string: Next up: `CCc1n[nH]c2nc(-c3cc(NC(=O)c4cc(OC)cc(OCCN5CCOCC5)c4)ccc3C)ccc12`
Result string: 7.60 to 11.00

Query string: Try this compound too: `Cc1ccc(NC(=O)c2cccc(C(F)(F)F)c2)cc1-c1ccc2c([C@@H](C)O)n[nH]c2n1`
Result string: 7.60 to 11.00

Query string: Try Cc1cc(C)cc(C(=O)Nc2ccc(C)c(-c3ccc4c(C(O)CN5CCOCC5)n[nH]c4n3)c2)c1 (stereo not shown) next.
Result string: 7.30 to 7.60

Query string: `CCc1n[nH]c2nc(-c3cc(NC(=O)c4cc(OC)cc(C(F)(F)F)c4)ccc3C)ccc12` ?
Result string: 7.60 to 11.00

Query string: Another compound to check: Cc1ccc(NC(=O)c2cccc(C(F)(F)F)c2)cc1-c1ccc2c(C(O)CN3CCOCC3)n[nH]c2n1 (stereo not shown)
Result string: 7.00 to 7.30

Query string: One more compound: `CCc1n[nH]c2nc(-c3cc(NC(=O)c4cc(C)cc(OCCOC)c4)ccc3C)ccc12`
Result string: 7.30 to 7.60

Query string: // query: `CCc1n[nH]c2nc(-c3cc(NC(=O)c4cc(N(C)C)cc(C(F)(F)F)c4)ccc3C)ccc12`
Result string: 7.00 to 7.30

Query string: Queued: `CCc1n[nH]c2nc(-c3cc(NC(=O)c4cc(OC)cc(OCCCN)c4)ccc3C)ccc12`
Result string: 7.60 to 11.00

Query string: One more compound: Cc1ccc(NC(=O)c2cccc(N(C)C)c2)cc1-c1ccc2c(C(O)CN3CCOCC3)n[nH]c2n1 (stereo not shown)
Result string: 7.00 to 7.30

Query string: Similarly, COc1cc(OC)cc(C(=O)Nc2ccc(C)c(-c3ccc4c(C(C)O)n[nH]c4n3)c2)c1 (stereo not shown) ?
Result string: 7.30 to 7.60

Query string: Query `Cc1ncc(NC(=O)c2cccc(C(F)(F)F)c2)cc1-c1ccc2c(C)n[nH]c2n1` next
Result string: 7.60 to 11.00

Query string: Another compound to look at: COc1cc(OC)cc(C(=O)Nc2ccc(C)c(-c3ccc4c(C(O)CN5CCOCC5)n[nH]c4n3)c2)c1 (stereo not shown)
Result string: < 7.00

Query string: Now consider Cc1cc(C)cc(C(=O)Nc2ccc(C)c(-c3ccc4c(C(C)O)n[nH]c4n3)c2)c1 (stereo not shown) and answer again.
Result string: 7.60 to 11.00

Query string: Can you handle `COc1cc(OC)cc(C(=O)Nc2cnc(C)c(-c3ccc4c(C)n[nH]c4n3)c2)c1` next?
Result string: 7.00 to 7.30

Query string: Then `CCc1n[nH]c2nc(-c3cc(NC(=O)c4cc(OC)cc(OCCN)c4)cnc3C)ccc12` ?
Result string: 7.00 to 7.30
